conditions: in ethylene glycol, 313.15 K
Measured Parameter: solubility (mole fraction)

INSERT INTO assay_data (compound, measurement) VALUES
  ('CC(C(=O)O)c1ccc2c(c1)[nH]c1ccc(Cl)cc12 (stereo unspecified)', 0.0117);

---

details: in isopropanol, 288.15 K
Measured Parameter: solubility (mole fraction)

INSERT INTO results (molecule, measurement) VALUES
  ('CC(C(=O)O)c1ccc2c(c1)[nH]c1ccc(Cl)cc12 (stereo unspecified)', 0.0145);

---

details: in formic acid, 293.15 K
Measured Parameter: solubility (mole fraction)

INSERT INTO results (compound, measurement) VALUES
  ('CC(C(=O)O)c1ccc2c(c1)[nH]c1ccc(Cl)cc12 (stereo unspecified)', 0.000547);

---

details: in isopropanol, 313.15 K
Measured Parameter: solubility (mole fraction)

INSERT INTO measurements (compound, measured_parameter, measurement) VALUES
  ('CC(C(=O)O)c1ccc2c(c1)[nH]c1ccc(Cl)cc12 (stereo unspecified)', 'solubility (mole fraction)', 0.0436);

---

details: in glycerin, 303.15 K
Measured Parameter: solubility (mole fraction)

INSERT INTO measurements (compound, measurement) VALUES
  ('CC(C(=O)O)c1ccc2c(c1)[nH]c1ccc(Cl)cc12 (stereo unspecified)', 0.000301);

---

details: in isobutanol, 303.15 K
Measured Parameter: solubility (mole fraction)

INSERT INTO assay_data (compound, measurement) VALUES
  ('CC(C(=O)O)c1ccc2c(c1)[nH]c1ccc(Cl)cc12 (stereo unspecified)', 0.0177);

---

conditions: in isobutanol, 288.15 K
Measured Parameter: solubility (mole fraction)

INSERT INTO results (compound, measurement) VALUES
  ('CC(C(=O)O)c1ccc2c(c1)[nH]c1ccc(Cl)cc12 (stereo unspecified)', 0.00942);

---

conditions: in propylene glycol, 313.15 K
Measured Parameter: solubility (mole fraction)

INSERT INTO measurements (molecule, measured_parameter, measurement) VALUES
  ('CC(C(=O)O)c1ccc2c(c1)[nH]c1ccc(Cl)cc12 (stereo unspecified)', 'solubility (mole fraction)', 0.0153);

---

details: in n-butanol, 298.15 K
Measured Parameter: solubility (mole fraction)

INSERT INTO assay_data (compound, measurement) VALUES
  ('CC(C(=O)O)c1ccc2c(c1)[nH]c1ccc(Cl)cc12 (stereo unspecified)', 0.0243);

---

settings: in formic acid, 323.15 K
Measured Parameter: solubility (mole fraction)

INSERT INTO results (compound, measured_parameter, measurement) VALUES
  ('CC(C(=O)O)c1ccc2c(c1)[nH]c1ccc(Cl)cc12 (stereo unspecified)', 'solubility (mole fraction)', 0.00388);

---

settings: in propylene glycol, 308.15 K
Measured Parameter: solubility (mole fraction)

INSERT INTO assay_data (compound, measured_parameter, measurement) VALUES
  ('CC(C(=O)O)c1ccc2c(c1)[nH]c1ccc(Cl)cc12 (stereo unspecified)', 'solubility (mole fraction)', 0.0121);

---

conditions: in propylene glycol, 318.15 K
Measured Parameter: solubility (mole fraction)

INSERT INTO measurements (molecule, measurement) VALUES
  ('CC(C(=O)O)c1ccc2c(c1)[nH]c1ccc(Cl)cc12 (stereo unspecified)', 0.0183);

---

details: in acetic acid, 303.15 K
Measured Parameter: solubility (mole fraction)

INSERT INTO assay_data (compound, measured_parameter, measurement) VALUES
  ('CC(C(=O)O)c1ccc2c(c1)[nH]c1ccc(Cl)cc12 (stereo unspecified)', 'solubility (mole fraction)', 0.00998);

---

details: in isobutanol, 313.15 K
Measured Parameter: solubility (mole fraction)

INSERT INTO assay_data (compound, measurement) VALUES
  ('CC(C(=O)O)c1ccc2c(c1)[nH]c1ccc(Cl)cc12 (stereo unspecified)', 0.0287);

---

details: in n-butanol, 303.15 K
Measured Parameter: solubility (mole fraction)

INSERT INTO assay_data (compound, measured_parameter, measurement) VALUES
  ('CC(C(=O)O)c1ccc2c(c1)[nH]c1ccc(Cl)cc12 (stereo unspecified)', 'solubility (mole fraction)', 0.0283);

---

conditions: in ethylene glycol, 293.15 K
Measured Parameter: solubility (mole fraction)

INSERT INTO results (compound, measured_parameter, measurement) VALUES
  ('CC(C(=O)O)c1ccc2c(c1)[nH]c1ccc(Cl)cc12 (stereo unspecified)', 'solubility (mole fraction)', 0.00433);

---

details: in ethylene glycol, 318.15 K
Measured Parameter: solubility (mole fraction)

INSERT INTO assay_data (compound, measured_parameter, measurement) VALUES
  ('CC(C(=O)O)c1ccc2c(c1)[nH]c1ccc(Cl)cc12 (stereo unspecified)', 'solubility (mole fraction)', 0.0168);

---

conditions: in isobutanol, 318.15 K
Measured Parameter: solubility (mole fraction)

INSERT INTO measurements (compound, measurement) VALUES
  ('CC(C(=O)O)c1ccc2c(c1)[nH]c1ccc(Cl)cc12 (stereo unspecified)', 0.0357);

---

details: in n-octanol, 308.15 K
Measured Parameter: solubility (mole fraction)

INSERT INTO measurements (compound, measurement) VALUES
  ('CC(C(=O)O)c1ccc2c(c1)[nH]c1ccc(Cl)cc12 (stereo unspecified)', 0.035);

---

conditions: in isopropanol, 298.15 K
Measured Parameter: solubility (mole fraction)

INSERT INTO assay_data (compound, measured_parameter, measurement) VALUES
  ('CC(C(=O)O)c1ccc2c(c1)[nH]c1ccc(Cl)cc12 (stereo unspecified)', 'solubility (mole fraction)', 0.0267);

---

details: in isopropanol, 293.15 K
Measured Parameter: solubility (mole fraction)

INSERT INTO measurements (compound, measured_parameter, measurement) VALUES
  ('CC(C(=O)O)c1ccc2c(c1)[nH]c1ccc(Cl)cc12 (stereo unspecified)', 'solubility (mole fraction)', 0.0179);

---

settings: in glycerin, 293.15 K
Measured Parameter: solubility (mole fraction)

INSERT INTO assay_data (compound, measured_parameter, measurement) VALUES
  ('CC(C(=O)O)c1ccc2c(c1)[nH]c1ccc(Cl)cc12 (stereo unspecified)', 'solubility (mole fraction)', 0.000147);

---

details: in ethylene glycol, 323.15 K
Measured Parameter: solubility (mole fraction)

INSERT INTO results (compound, measurement) VALUES
  ('CC(C(=O)O)c1ccc2c(c1)[nH]c1ccc(Cl)cc12 (stereo unspecified)', 0.0194);

---

details: in acetic acid, 313.15 K
Measured Parameter: solubility (mole fraction)

INSERT INTO assay_data (compound, measured_parameter, measurement) VALUES
  ('CC(C(=O)O)c1ccc2c(c1)[nH]c1ccc(Cl)cc12 (stereo unspecified)', 'solubility (mole fraction)', 0.0174);

---

details: in isopropanol, 303.15 K
Measured Parameter: solubility (mole fraction)

INSERT INTO measurements (compound, measured_parameter, measurement) VALUES
  ('CC(C(=O)O)c1ccc2c(c1)[nH]c1ccc(Cl)cc12 (stereo unspecified)', 'solubility (mole fraction)', 0.031);

---

settings: in acetic acid, 323.15 K
Measured Parameter: solubility (mole fraction)

INSERT INTO results (compound, measured_parameter, measurement) VALUES
  ('CC(C(=O)O)c1ccc2c(c1)[nH]c1ccc(Cl)cc12 (stereo unspecified)', 'solubility (mole fraction)', 0.0268);

---

settings: in ethylene glycol, 308.15 K
Measured Parameter: solubility (mole fraction)

INSERT INTO results (molecule, measured_parameter, measurement) VALUES
  ('CC(C(=O)O)c1ccc2c(c1)[nH]c1ccc(Cl)cc12 (stereo unspecified)', 'solubility (mole fraction)', 0.00861);

---

details: in isobutanol, 293.15 K
Measured Parameter: solubility (mole fraction)

INSERT INTO measurements (compound, measurement) VALUES
  ('CC(C(=O)O)c1ccc2c(c1)[nH]c1ccc(Cl)cc12 (stereo unspecified)', 0.0103);

---

conditions: in n-butanol, 308.15 K
Measured Parameter: solubility (mole fraction)

INSERT INTO assay_data (compound, measurement) VALUES
  ('CC(C(=O)O)c1ccc2c(c1)[nH]c1ccc(Cl)cc12 (stereo unspecified)', 0.0346);

---

conditions: in glycerin, 323.15 K
Measured Parameter: solubility (mole fraction)

INSERT INTO results (compound, measured_parameter, measurement) VALUES
  ('CC(C(=O)O)c1ccc2c(c1)[nH]c1ccc(Cl)cc12 (stereo unspecified)', 'solubility (mole fraction)', 0.00133);

---

details: in n-octanol, 293.15 K
Measured Parameter: solubility (mole fraction)

INSERT INTO results (compound, measurement) VALUES
  ('CC(C(=O)O)c1ccc2c(c1)[nH]c1ccc(Cl)cc12 (stereo unspecified)', 0.0177);

---

conditions: in n-propanol, 318.15 K
Measured Parameter: solubility (mole fraction)

INSERT INTO assay_data (molecule, measurement) VALUES
  ('CC(C(=O)O)c1ccc2c(c1)[nH]c1ccc(Cl)cc12 (stereo unspecified)', 0.0598);
